Exercise: state measured DC50 for each of the compounds provided.
# target_entity: HiBit-BRG1 fusion protein (Homo sapiens)
# Construct: expressed in transfected cells
# Sequence (P51532 whole entry, the tested form may be a part): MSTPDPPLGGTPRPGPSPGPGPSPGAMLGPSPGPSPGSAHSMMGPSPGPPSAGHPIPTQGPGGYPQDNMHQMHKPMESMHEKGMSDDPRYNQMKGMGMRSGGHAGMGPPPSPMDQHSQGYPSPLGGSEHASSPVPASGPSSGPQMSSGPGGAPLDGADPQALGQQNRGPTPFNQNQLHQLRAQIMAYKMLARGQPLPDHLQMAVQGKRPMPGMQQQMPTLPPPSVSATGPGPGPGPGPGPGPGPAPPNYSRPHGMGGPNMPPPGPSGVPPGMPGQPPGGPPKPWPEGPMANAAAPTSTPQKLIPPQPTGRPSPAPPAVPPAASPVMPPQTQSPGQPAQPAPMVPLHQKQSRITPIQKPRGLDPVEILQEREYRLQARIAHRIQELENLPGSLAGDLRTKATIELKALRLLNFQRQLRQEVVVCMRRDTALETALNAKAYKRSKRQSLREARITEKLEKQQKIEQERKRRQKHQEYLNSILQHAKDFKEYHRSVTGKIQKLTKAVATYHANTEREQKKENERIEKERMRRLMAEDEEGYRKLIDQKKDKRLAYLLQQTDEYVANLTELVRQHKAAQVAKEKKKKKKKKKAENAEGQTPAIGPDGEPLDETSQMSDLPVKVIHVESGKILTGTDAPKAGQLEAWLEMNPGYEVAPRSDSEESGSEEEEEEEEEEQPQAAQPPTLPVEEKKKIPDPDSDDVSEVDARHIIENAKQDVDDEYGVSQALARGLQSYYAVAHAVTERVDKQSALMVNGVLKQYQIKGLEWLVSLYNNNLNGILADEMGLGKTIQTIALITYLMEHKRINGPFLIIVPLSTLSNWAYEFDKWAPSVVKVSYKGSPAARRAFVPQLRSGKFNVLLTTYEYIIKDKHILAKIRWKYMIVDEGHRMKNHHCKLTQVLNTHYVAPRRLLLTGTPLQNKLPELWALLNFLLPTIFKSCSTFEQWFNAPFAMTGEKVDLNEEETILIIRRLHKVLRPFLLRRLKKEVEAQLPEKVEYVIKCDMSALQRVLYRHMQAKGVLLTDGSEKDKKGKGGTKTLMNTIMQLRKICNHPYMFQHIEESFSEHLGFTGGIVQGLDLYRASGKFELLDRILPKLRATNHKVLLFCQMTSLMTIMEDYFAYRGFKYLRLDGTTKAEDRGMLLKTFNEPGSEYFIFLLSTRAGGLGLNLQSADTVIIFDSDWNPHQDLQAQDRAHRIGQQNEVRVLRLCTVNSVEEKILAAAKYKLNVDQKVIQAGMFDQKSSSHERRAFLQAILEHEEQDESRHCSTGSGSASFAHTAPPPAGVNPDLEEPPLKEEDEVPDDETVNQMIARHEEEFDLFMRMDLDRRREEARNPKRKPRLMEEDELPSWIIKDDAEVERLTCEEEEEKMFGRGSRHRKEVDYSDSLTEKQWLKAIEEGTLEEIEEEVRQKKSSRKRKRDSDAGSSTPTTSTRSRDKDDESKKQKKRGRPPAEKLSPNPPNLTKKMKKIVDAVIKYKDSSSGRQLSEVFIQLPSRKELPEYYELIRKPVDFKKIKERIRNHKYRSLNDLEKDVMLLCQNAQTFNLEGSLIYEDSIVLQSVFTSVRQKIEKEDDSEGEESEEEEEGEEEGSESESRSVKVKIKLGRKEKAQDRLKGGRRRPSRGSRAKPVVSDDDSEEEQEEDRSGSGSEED
# assay_name: HiBiT-BRG1 cell-based degradation assay (Nano-Glo HiBiT Lytic Detection, 24 h)
# setup_conditions: HeLa cells expressing HiBit-BRG1 and LgBit, read-out: BRG1 HiBit Degradation IC50
# Experimental: Procedure: A stable HeLa cell line expressing HiBiT-BRM was generated. On day 0, 5000 cells were seeded in 40 μL of media into each well of 384-well cell culture plates. […] The plates were shaken for 10 minutes at room temperature and the bioluminescence read using an EnVision plate reader (PerkinElmer). […] The degradation % was calculated using the following formula: % degradation=100%−100%×(LumSample−LumLC)/(LumHC−LumLC). […]

>>> value_reported("CS(=O)(=O)n1ccc(C(=O)N[C@@H](COCCCC(=O)NCCCCCCCCNc2cccc3c2C(=O)N(C2CCC(=O)NC2=O)C3=O)C(=O)Nc2nc(-c3ccccc3)cs2)c1 (some centres unmarked)")
"> 10 µM"

// for each compound below, give its DC50
1. CS(=O)(=O)n1ccc(C(=O)N[C@@H](CCOCCCC(=O)NCCOC2CN(c3ccc4c(c3)C(=O)N(C3CCC(=O)NC3=O)C4=O)C2)C(=O)Nc2nc(-c3ccccc3)cs2)c1 (some centres unmarked)
2. CS(=O)(=O)n1ccc(C(=O)NCC(=O)Nc2nc(-c3cccc(-c4ccn(CC(=O)N5CCC(C6CCN(C(=O)COc7cccc8c7C(=O)N(C7CCC(=O)NC7=O)C8=O)CC6)CC5)n4)c3)cs2)c1 (centres unmarked)

Ans:
1. > 10 µM
2. > 10 µM

Fill in DC50 for each of the 2 compounds listed.
1. Cc1ncsc1-c1ccc(CNC(=O)C2CC(O)CN2C(=O)C(NC(=O)CCCCCCCNC(=O)c2ccc(COCC(NC(=O)c3ccn(S(C)(=O)=O)c3)C(=O)Nc3nc(-c4ccccc4)cs3)cc2)C(C)(C)C)cc1 (centres unmarked)
2. CS(=O)(=O)n1ccc(C(=O)NCC(=O)Nc2nc(-c3cccc(-c4ccnc(C5(C(=O)NC6CCN(CCOc7ccc8c(c7)C(=O)N(C7CCC(=O)NC7=O)C8=O)CC6)CC5)c4)c3)cs2)c1 (centres unmarked)

Ans:
["0.1 to 1 µM", "< 0.1 µM"]
